Test system: U2OS
Assay: Multiplex assay against U2OS
Format: toxicity, cell-based
Conditions: human, 24 h, 10 µM, compound concentration 10 uM, replicate 2
Each entry below lists one item and its recorded Population Membrane Permeable-Phenotype (%) value.
readoutName: Population Membrane Permeable-Phenotype (%)

| compound | u | reportedValue |
| --- | --- | --- |
| CN(C)C(=O)N[C@H]1CC[C@H](CCN2CCN(c3cccc(Cl)c3Cl)CC2)CC1.Cl [CARIPRAZINE HYDROCHLORIDE] | % | 42 |
| CNc1nc(NCc2ccc(NS(C)(=O)=O)cc2Cl)cc(-c2ccccn2)n1 | % | 4 |
| CN1C(=O)c2sccc2N(C)c2nc(Nc3ccc(S(N)(=O)=O)cc3)ncc21 | % | 11 |
| C=CC(=O)Nc1cccc(C(=O)Nc2ccc(Nc3cc(-c4[nH]c(SC)nc4C)ccn3)cc2)c1 | % | 8 |
| COc1cccc([C@@H](C)NCCCc2ccccc2Cl)c1.Cl [TECALCET HYDROCHLORIDE] | % | 24 |
| CN(C)CC#Cc1ccc(OCCCc2sc(N3CCc4cccc(C(=O)Nc5nc6ccccc6s5)c4C3)nc2C(=O)O)c(F)c1 | % | 20 |
| COc1ncc(-c2ccc3nccc(-c4ccnnc4)c3c2)cc1NS(=O)(=O)c1ccc(F)cc1F | % | 35 |
| COc1cc(-n2cnc3cc(-c4ccc(Cl)cc4)sc3c2=O)ccc1OCCN1CCCC1 | % | 42 |
| CN(C)C(=O)/C(C#N)=C/c1ccc(-c2nc3cnc4[nH]ccc4c3n2C2CCCCC2)o1 | % | 12 |
| c1cn2cc(-c3ccc4cn[nH]c4c3)nc(Nc3ccc(N4CCOCC4)cc3)c2n1 | % | 8 |
| Cc1nc(-c2ccc(-c3ccc(C(=O)N4CCc5cc6c(cc54)C4(CCN(C)CC4)CO6)cc3)c(C)c2)no1 | % | 86 |
| Cn1cc(-c2[nH]c3cc(NC(=O)[C@H](N)C4CCCCC4)cc4c3c2C=NNC4=O)cn1 | % | 44 |
| CN1CCCC(n2nc(Cc3ccc(Cl)cc3)c3ccccc3c2=O)CC1.Cl (stereo unspecified) [AZELASTINE HYDROCHLORIDE] | % | 98 |
| Cl.N#Cc1ccc2[nH]cc(CCCCN3CCN(c4ccc5oc(C(N)=O)cc5c4)CC3)c2c1 [VILAZODONE HYDROCHLORIDE] | % | 30 |
| Cc1nc(Nc2n[nH]c3c2CN(C(=O)N[C@H](CN(C)C)c2ccccc2)C3(C)C)c2sccc2n1 | % | 38 |
| Cc1csc2c(N[C@@H](C)CN3CCN(S(=O)(=O)c4ccc(Cl)c(Cl)c4)CC3)ncnc12 | % | 80 |
| CC(C)NCC(O)COc1ccc(CCOCC2CC2)cc1.Cl (stereo unspecified) [BETAXOLOL HYDROCHLORIDE] | % | 5 |
| C=CC(=O)Nc1cc2c(Nc3ccc(F)c(Cl)c3)ncnc2cc1OCCCN1CCOCC1.Cl.Cl [CANERTINIB DIHYDROCHLORIDE] | % | 20 |
| Cc1nc(-c2cn3c(n2)-c2ccc(-c4cnn(C(C)(C)C(N)=O)c4)cc2OCC3)n(C(C)C)n1 | % | 13 |
| O=C1NCN(c2ccccc2)C12CCN(CCCOc1ccc(F)cc1)CC2 [SPIRAMIDE] | % | 2 |
| CN1CCN(CCOc2cc(OC3CCOCC3)c3c(Nc4c(Cl)ccc5c4OCO5)ncnc3c2)CC1 | % | 21 |
| OC1(c2ccc(Cl)cc2)CCN(Cc2c[nH]c3ccccc23)CC1 | % | 5 |
| CCN(CC)CCCCNc1ncc2cc(-c3cc(OC)cc(OC)c3)c(NC(=O)NC(C)(C)C)nc2n1 | % | 18 |
| C[C@@]1(C(=O)Nc2ccc(F)nc2)CCCN1c1nc(Nc2cc(C3CC3)n[nH]2)c2cccn2n1 | % | 22 |
| COc1cc2nccc(Oc3ccc(NC(=O)Nc4cc(C)on4)c(Cl)c3)c2cc1OC.O | % | 67 |
| Cc1[nH]c(/C=C2\C(=O)Nc3ccc(S(=O)(=O)N(C)c4cccc(Cl)c4)cc32)c(C)c1C(=O)N1CCN(C)CC1 | % | 84 |
| Cc1cc(C)cc(-c2cnc3cc(Cl)c(-c4cccc(O)c4)cc3c2OCCCN)c1 | % | 50 |
| C[C@@H](NCCCc1cccc(C(F)(F)F)c1)c1cccc2ccccc12.Cl [CINACALCET HYDROCHLORIDE] | % | 52 |
| CN1CCC[C@@H]1CCO[C@](C)(c1ccccc1)c1ccc(Cl)cc1.O=C(O)/C=C/C(=O)O [CLEMASTINE FUMARATE] | % | 26 |
| Cc1c(-c2ccc(O)cc2)n(Cc2ccc(OCCN3CCCCCC3)cc2)c2ccc(O)cc12 | % | 75 |
| CN1CCN(c2ccc(OC(F)(F)F)c(Nc3ncc4c(n3)-c3c(c(C(N)=O)nn3CCO)CC4)c2)CC1 | % | 5 |

The measurements presented in this section are drawn from ChEMBL document CHEMBL4689842.
